target: human neuronal constitutive NOS (hncNOS) (Homo sapiens, UniProt P29475); experiment: Citrulline assay for nitric oxide synthase, hncNOS; details: recombinant enzyme, 30 μM L-arginine, calmodulin; averages across all experiments and all lots
Sequence (P29475 whole entry): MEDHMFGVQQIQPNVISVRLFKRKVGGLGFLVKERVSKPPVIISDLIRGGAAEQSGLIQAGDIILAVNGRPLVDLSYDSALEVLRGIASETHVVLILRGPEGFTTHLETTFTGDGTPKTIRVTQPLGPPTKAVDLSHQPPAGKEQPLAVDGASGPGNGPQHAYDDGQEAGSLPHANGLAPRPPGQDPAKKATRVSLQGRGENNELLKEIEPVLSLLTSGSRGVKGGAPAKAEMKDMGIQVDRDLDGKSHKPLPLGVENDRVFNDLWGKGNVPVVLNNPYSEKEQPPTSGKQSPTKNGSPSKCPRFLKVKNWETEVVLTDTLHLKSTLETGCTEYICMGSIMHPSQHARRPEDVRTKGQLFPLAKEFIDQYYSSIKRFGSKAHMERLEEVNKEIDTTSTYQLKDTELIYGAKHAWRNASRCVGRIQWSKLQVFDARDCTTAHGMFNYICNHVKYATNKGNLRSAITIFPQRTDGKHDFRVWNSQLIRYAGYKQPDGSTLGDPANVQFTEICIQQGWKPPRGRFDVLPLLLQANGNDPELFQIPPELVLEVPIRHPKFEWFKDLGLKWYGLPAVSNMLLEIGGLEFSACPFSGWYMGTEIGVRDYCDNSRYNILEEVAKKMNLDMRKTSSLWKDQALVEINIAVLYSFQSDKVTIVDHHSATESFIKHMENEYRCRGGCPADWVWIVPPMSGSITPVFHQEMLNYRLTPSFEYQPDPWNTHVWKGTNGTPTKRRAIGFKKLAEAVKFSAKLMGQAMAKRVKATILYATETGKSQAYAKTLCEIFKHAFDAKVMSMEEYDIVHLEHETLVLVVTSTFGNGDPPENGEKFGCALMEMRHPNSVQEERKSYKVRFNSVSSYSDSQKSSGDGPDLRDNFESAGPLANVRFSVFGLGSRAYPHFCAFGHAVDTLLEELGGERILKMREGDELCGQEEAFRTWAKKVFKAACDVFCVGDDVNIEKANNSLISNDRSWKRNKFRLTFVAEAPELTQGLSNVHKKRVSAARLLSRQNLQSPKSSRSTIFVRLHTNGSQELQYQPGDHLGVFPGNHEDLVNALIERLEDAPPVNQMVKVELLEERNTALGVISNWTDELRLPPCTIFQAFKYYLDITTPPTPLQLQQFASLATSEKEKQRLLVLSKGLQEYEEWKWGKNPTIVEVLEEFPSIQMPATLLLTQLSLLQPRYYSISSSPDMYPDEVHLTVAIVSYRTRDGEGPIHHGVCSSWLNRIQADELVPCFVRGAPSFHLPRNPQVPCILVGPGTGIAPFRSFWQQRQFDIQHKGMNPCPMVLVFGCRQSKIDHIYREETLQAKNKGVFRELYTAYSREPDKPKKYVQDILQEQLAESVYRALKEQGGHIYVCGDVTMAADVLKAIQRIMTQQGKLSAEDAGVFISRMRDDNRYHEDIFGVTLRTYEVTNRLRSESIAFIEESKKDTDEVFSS
pIC50: −log10 of the molar value. Structures can show the parent of a compound that is named as a salt.
property_measured: pIC50

CC(=N)NC[C@@H](C)SC[C@](C)(N)C(=O)O [Example 3, dihydrochloride] | 4.07
CC(=N)NC[C@H](C)SC[C@](C)(N)C(=O)O [Example 4, dihydrochloride] | 3.27
CC(=N)NCCS(=O)(=O)C[C@](C)(N)C(=O)O [Example 19, dihydrochloride] | 3.66
CC(=N)NCCSCC(C)(N)C(=O)O (stereo not drawn) | 4.44
CC[C@](N)(CSCCNC(C)=N)C(=O)O [Example 7, dihydrochloride] | 4.77
CC(=N)NCC[S+]([O-])C[C@](C)(N)C(=O)O (mixture of isomers) [Example 18, dihydrochloride] | 3.74
CC(=N)NCCSC[C@](C)(N)C(=O)O [Example 1, dihydrochloride] | 4.82
CC(=N)NCCSC[C@](N)(C(=O)O)C(C)C [Example 11, dihydrochloride] | 5.22
COC[C@](N)(CSCCNC(C)=N)C(=O)O [Example 2, dihydrochloride] | 4.24

The measurements presented in this section are drawn from patent US6403830B2.
